biological target: BACE1 (Homo sapiens); test: In vitro enzymatic BACE FRET assay; type: biochemical; conditions: beta secretase enzyme 0.2 nM, FRET substrate 50 nM, pH 4.2; read-out: BACE1 FRET assay (IC50 class)
Sequence (P56817 46-501, species assumed): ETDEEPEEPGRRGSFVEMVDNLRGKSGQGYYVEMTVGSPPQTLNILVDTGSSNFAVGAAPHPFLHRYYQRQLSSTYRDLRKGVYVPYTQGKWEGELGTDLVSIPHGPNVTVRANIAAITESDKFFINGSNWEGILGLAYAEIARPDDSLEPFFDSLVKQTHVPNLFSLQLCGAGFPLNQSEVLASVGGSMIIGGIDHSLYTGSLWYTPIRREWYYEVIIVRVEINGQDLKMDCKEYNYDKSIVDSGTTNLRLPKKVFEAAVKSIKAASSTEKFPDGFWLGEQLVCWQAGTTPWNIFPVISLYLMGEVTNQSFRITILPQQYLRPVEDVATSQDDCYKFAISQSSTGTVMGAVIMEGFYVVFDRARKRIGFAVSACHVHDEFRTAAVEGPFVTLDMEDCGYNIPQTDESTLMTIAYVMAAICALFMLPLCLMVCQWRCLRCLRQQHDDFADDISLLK
// values below are reported IC50
measurementKind: IC50

compound: COc1ccccc1C(=O)c1cccc(C)c1-c1ccc2nc(N)c(C3CCOCC3)cc2c1
recordedValue: < 100 nM

compound: Cc1cccc(C(O)c2ccccc2)c1-c1ccc2nc(N)c(N3CCOCC3)cc2c1 (centres unmarked)
recordedValue: < 100 nM

compound: Nc1nc2ccc(-c3c(Cl)cccc3C(=O)N3CCOCC3)cc2cc1N1CCOCC1
recordedValue: 100 to 500 nM

compound: Cc1cccc(C(=O)N(C)CC(C)C)c1-c1ccc2nc(N)c(N3CCOCC3)cc2c1
recordedValue: < 100 nM

compound: Cc1cccc(C(=O)N2CC[C@@H](F)C2)c1-c1ccc2nc(N)c(N3CCOCC3)cc2c1
recordedValue: < 100 nM

compound: Cc1coc(-c2cccc(C)c2-c2ccc3nc(N)c(N4CCOCC4)cc3c2)n1
recordedValue: 100 to 500 nM

compound: Cc1cnc(-c2cccc(C)c2-c2ccc3nc(N)c(N4CCOCC4)cc3c2)o1
recordedValue: 1010 to 5000 nM

compound: Cc1cccc(C(=O)n2ccc3ccccc32)c1-c1ccc2nc(N)c(N3CCOCC3)cc2c1
recordedValue: 100 to 500 nM

compound: Cc1cccc(C(=O)C2CCCO2)c1-c1ccc2nc(N)c(N3CCOCC3)cc2c1 (centres unmarked)
recordedValue: 100 to 500 nM

compound: Cc1cccc(Cc2ccccc2F)c1-c1ccc2nc(N)c(N3CCOCC3)cc2c1
recordedValue: < 100 nM

compound: CCCCC(=O)c1cccc(C)c1-c1ccc2nc(N)c(N3CCOCC3)cc2c1
recordedValue: < 100 nM

compound: Cc1cccc(C(=O)N2CCCC(F)(F)C2)c1-c1ccc2nc(N)c(N3CCOCC3)cc2c1
recordedValue: < 100 nM

compound: Cc1cccc(C(=O)N2CCCC2)c1-c1ccc2nc(N)c(C3CCCO3)cc2c1 (centres unmarked)
recordedValue: 100 to 500 nM

compound: Cc1cc(F)cc(C(=O)N2CCCC2)c1-c1ccc2nc(N)c(N3CCOCC3)cc2c1
recordedValue: < 100 nM

compound: Cc1cccc(C(=O)Cc2ccccc2)c1-c1ccc2nc(N)c(N3CCOCC3)cc2c1
recordedValue: < 100 nM

compound: CCC1CCCN1C(=O)c1cccc(C)c1-c1ccc2nc(N)c(N3CCOCC3)cc2c1 (centres unmarked)
recordedValue: < 100 nM

compound: Cc1ccccc1C(=O)c1cccc(C)c1-c1ccc2nc(N)c(N3CCOCC3)cc2c1
recordedValue: < 100 nM
